- Test system: SK-MEL-5
- Measurement description: NCI DTP 60 cell line screen, SRB
- Test settings: Homo sapiens, SK-MEL-5, 48 h, read-out: LC50
Exercise: state measured CC50 for each of the compounds provided.
Report the value in µM with no unit label.

Look at this compound and give its reported CC50. O=C(O)C(Cc1ccccc1)N1C(=O)/C(=C/C(Cl)=C/c2ccc([N+](=O)[O-])cc2)SC1=S (centres unmarked)
5.6

Look at this compound and give its reported CC50. O=C1NC(=S)S/C1=C\C(Cl)=C\c1ccc([N+](=O)[O-])cc1
24

Look at this compound and give its reported CC50. O=C1/C(=C/C(Cl)=C/c2ccc([N+](=O)[O-])cc2)SC(=S)N1c1ccc(O)cc1
3.41

Look at this compound and give its reported CC50. O=C1/C(=C/C(Cl)=C/c2ccc([N+](=O)[O-])cc2)SC(=S)N1/N=C\C(Cl)=C\c1ccc([N+](=O)[O-])cc1
75.6

Look at this compound and give its reported CC50. O=C(O)CCN1C(=O)/C(=C/C(Cl)=C/c2ccc([N+](=O)[O-])cc2)SC1=S
1.88

====

- Tested on: EKVX
- Test settings: EKVX (Non-Small Cell Lung Cancer), 48 h, SRB
Measurement kind: TGI (µM)
Report the value in µM with no unit label.

Look at this compound and give its reported TGI. O=C1/C(=C/C(Cl)=C/c2ccc([N+](=O)[O-])cc2)SC(=S)N1/N=C\C(Cl)=C\c1ccc([N+](=O)[O-])cc1 [Compound 2c]
47.7

Look at this compound and give its reported TGI. O=C(O)C(Cc1ccccc1)N1C(=O)/C(=C/C(Cl)=C/c2ccc([N+](=O)[O-])cc2)SC1=S (centres unmarked) [Compound 2j]
7.29

Look at this compound and give its reported TGI. O=C1/C(=C/C(Cl)=C/c2ccc([N+](=O)[O-])cc2)SC(=S)N1c1ccc(O)cc1 [Compound 2f]
16.2

Look at this compound and give its reported TGI. O=C(O)CCN1C(=O)/C(=C/C(Cl)=C/c2ccc([N+](=O)[O-])cc2)SC1=S [Compound 2h]
4.01

====

Exercise: state measured GI50 for each of the compounds provided.
- System: RPMI-8226
Report the value in nM with no unit label.

Look at this compound and give its reported GI50. O=C1/C(=C/C(Cl)=C/c2ccc([N+](=O)[O-])cc2)SC(=S)N1/N=C\C(Cl)=C\c1ccc([N+](=O)[O-])cc1
2380

Look at this compound and give its reported GI50. O=C1NC(=S)S/C1=C\C(Cl)=C\c1ccc([N+](=O)[O-])cc1
1540

Look at this compound and give its reported GI50. O=C(O)CCN1C(=O)/C(=C/C(Cl)=C/c2ccc([N+](=O)[O-])cc2)SC1=S
138

Look at this compound and give its reported GI50. O=C(O)C(Cc1ccccc1)N1C(=O)/C(=C/C(Cl)=C/c2ccc([N+](=O)[O-])cc2)SC1=S (centres unmarked)
3220

====

- Test system: Ovarian Cancer subpanel
- Measurement description: cells
- Test settings: full panel MG_MID / Ovarian Cancer subpanel MG_MID
Measurement kind: SI (selectivity index), GI50
The answer should be written as a number, with no unit following it.

Look at this molecule and give its reported SI (selectivity index), GI50. O=C1NC(=S)S/C1=C\C(Cl)=C\c1ccc([N+](=O)[O-])cc1
0.72

Look at this molecule and give its reported SI (selectivity index), GI50. O=C1/C(=C/C(Cl)=C/c2ccc([N+](=O)[O-])cc2)SC(=S)N1/N=C\C(Cl)=C\c1ccc([N+](=O)[O-])cc1
0.99

Look at this molecule and give its reported SI (selectivity index), GI50. O=C(O)C(Cc1ccccc1)N1C(=O)/C(=C/C(Cl)=C/c2ccc([N+](=O)[O-])cc2)SC1=S (stereo not shown)
1.36

Look at this molecule and give its reported SI (selectivity index), GI50. O=C1/C(=C/C(Cl)=C/c2ccc([N+](=O)[O-])cc2)SC(=S)N1c1ccc(O)cc1
0.84

====

- Test system: HT-29
- Measurement description: NCI DTP 60 cell line screen, SRB
- Test settings: HT-29 (Colon Cancer), 48 h, SRB
Measurement kind: TGI (µM)
Report the value in µM with no unit label.

Look at this molecule and give its reported TGI. O=C1NC(=S)S/C1=C\C(Cl)=C\c1ccc([N+](=O)[O-])cc1 [Compound 2b]
9.48

Look at this molecule and give its reported TGI. O=C(O)C(Cc1ccccc1)N1C(=O)/C(=C/C(Cl)=C/c2ccc([N+](=O)[O-])cc2)SC1=S (stereo not shown) [Compound 2j]
8.47

Look at this molecule and give its reported TGI. O=C(O)CCN1C(=O)/C(=C/C(Cl)=C/c2ccc([N+](=O)[O-])cc2)SC1=S [Compound 2h]
2.77

====

- System: MDA-MB-231/ATCC
- Measurement description: NCI DTP 60 cell line screen, SRB
- Test settings: Homo sapiens, MDA-MB-231, 48 h, read-out: LC50
Exercise: state measured CC50 for each of the compounds provided.
Report the value in µM with no unit label.

Look at this compound and give its reported CC50. O=C(O)CCN1C(=O)/C(=C/C(Cl)=C/c2ccc([N+](=O)[O-])cc2)SC1=S [Compound 2h]
25.9

Look at this compound and give its reported CC50. O=C1/C(=C/C(Cl)=C/c2ccc([N+](=O)[O-])cc2)SC(=S)N1c1ccc(O)cc1 [Compound 2f]
92.1

====

// GI50 collected for OVCAR-4
Report the value in nM with no unit label.

Look at this compound and give its reported GI50. O=C(O)C(Cc1ccccc1)N1C(=O)/C(=C/C(Cl)=C/c2ccc([N+](=O)[O-])cc2)SC1=S (stereo not shown)
3210

Look at this compound and give its reported GI50. O=C(O)CCN1C(=O)/C(=C/C(Cl)=C/c2ccc([N+](=O)[O-])cc2)SC1=S
2660

Look at this compound and give its reported GI50. O=C1NC(=S)S/C1=C\C(Cl)=C\c1ccc([N+](=O)[O-])cc1
1950

Look at this compound and give its reported GI50. O=C1/C(=C/C(Cl)=C/c2ccc([N+](=O)[O-])cc2)SC(=S)N1c1ccc(O)cc1
2630

====

Exercise: state measured GI50 for each of the compounds provided.
- System: SR
Report the value in nM with no unit label.

Look up GI50 with SR for this compound: O=C1/C(=C/C(Cl)=C/c2ccc([N+](=O)[O-])cc2)SC(=S)N1/N=C\C(Cl)=C\c1ccc([N+](=O)[O-])cc1 [Compound 2c]
3670

Look up GI50 with SR for this compound: O=C(O)C(Cc1ccccc1)N1C(=O)/C(=C/C(Cl)=C/c2ccc([N+](=O)[O-])cc2)SC1=S (centres unmarked) [Compound 2j]
2450

Look up GI50 with SR for this compound: O=C1/C(=C/C(Cl)=C/c2ccc([N+](=O)[O-])cc2)SC(=S)N1c1ccc(O)cc1 [Compound 2f]
10

Look up GI50 with SR for this compound: O=C1NC(=S)S/C1=C\C(Cl)=C\c1ccc([N+](=O)[O-])cc1 [Compound 2b]
1180

====

Exercise: state measured CC50 for each of the molecules provided.
- Tested on: MCF-7
- Measurement description: NCI DTP 60 cell line screen, SRB
- Test settings: Homo sapiens, MCF7, 48 h, read-out: LC50

Look at this molecule and give its reported CC50. O=C1NC(=S)S/C1=C\C(Cl)=C\c1ccc([N+](=O)[O-])cc1
> 50 µM

Look at this molecule and give its reported CC50. O=C(O)CCN1C(=O)/C(=C/C(Cl)=C/c2ccc([N+](=O)[O-])cc2)SC1=S
> 100 µM

Look at this molecule and give its reported CC50. O=C1/C(=C/C(Cl)=C/c2ccc([N+](=O)[O-])cc2)SC(=S)N1c1ccc(O)cc1
> 100 µM

Look at this molecule and give its reported CC50. O=C(O)C(Cc1ccccc1)N1C(=O)/C(=C/C(Cl)=C/c2ccc([N+](=O)[O-])cc2)SC1=S (centres unmarked)
> 100 µM

Look at this molecule and give its reported CC50. O=C1/C(=C/C(Cl)=C/c2ccc([N+](=O)[O-])cc2)SC(=S)N1/N=C\C(Cl)=C\c1ccc([N+](=O)[O-])cc1
83.7 µM

====

- System: OVCAR-4
- Measurement description: NCI DTP 60 cell line screen, SRB
- Test settings: Homo sapiens, OVCAR-4, 48 h, read-out: LC50
Exercise: state measured CC50 for each of the molecules provided.

Look at this molecule and give its reported CC50. O=C(O)C(Cc1ccccc1)N1C(=O)/C(=C/C(Cl)=C/c2ccc([N+](=O)[O-])cc2)SC1=S (stereo not shown) [Compound 2j]
> 100 µM

Look at this molecule and give its reported CC50. O=C1/C(=C/C(Cl)=C/c2ccc([N+](=O)[O-])cc2)SC(=S)N1c1ccc(O)cc1 [Compound 2f]
> 100 µM

Look at this molecule and give its reported CC50. O=C1NC(=S)S/C1=C\C(Cl)=C\c1ccc([N+](=O)[O-])cc1 [Compound 2b]
> 50 µM

Look at this molecule and give its reported CC50. O=C(O)CCN1C(=O)/C(=C/C(Cl)=C/c2ccc([N+](=O)[O-])cc2)SC1=S [Compound 2h]
56.2 µM

// provenance: paper PMC8161026
